Tested on: 885724-159-R-J1-PDC complex spheroid viability;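 note: spheroids exposed to compounds for 7 days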
Method Notes: Anticancer human tumor 885724-159-R-J1-PDC patient-derived pancreatic adenocarcinoma cell line growth inhibition [POLQ]
Study Conditions: second compound 10 µM; first compound 3.16 µM; active compounds read low
Recorded viability, T/C for the following compounds

{"columns": ["Compound", "Measurement Units", "viability, T/C"],
 "data": [
  ["COc1cc2cc(C(=O)CCC(=O)O)sc2cc1OC + COC1C(OC(N)=O)C(O)C(Oc2ccc3c(O)c(NC(=O)c4ccc(O)c(CC=C(C)C)c4)c(=O)oc3c2C)OC1(C)C", "%", 87.5],
  ["CCc1cc2c(N3CCc4c(cc(Cn5ccnc5)cc4-c4cn(C)nc4C(F)(F)F)C3=O)cc(C)nc2c(OC)n1 + COC1C(OC(N)=O)C(O)C(Oc2ccc3c(O)c(NC(=O)c4ccc(O)c(CC=C(C)C)c4)c(=O)oc3c2C)OC1(C)C", "%", 75.9],
  ["CC(C)n1c(=O)n(C)c2cnc3cc(F)c(-c4ccc(OCCCN5CCCCC5)nc4)cc3c21 + Nc1ccc(C#CCN(C(=O)Cc2ncc(C(F)(F)F)cc2C(F)(F)F)c2ccc(F)cc2)nn1", "%", 90.7],
  ["COc1cccc2c1C(=O)c1c(O)c3c(c(O)c1C2=O)CC(O)(C(=O)CO)CC3OC1CC(N)C(O)C(C)O1 (stereo not given) + Nc1ccc(C#CCN(C(=O)Cc2ncc(C(F)(F)F)cc2C(F)(F)F)c2ccc(F)cc2)nn1", "%", 5.42],
  ["CC1COCCN1c1cc(C2(S(C)(=N)=O)CC2)nc(-c2ccnc3[nH]ccc23)n1 (stereo not given) + Nc1ccc(C#CCN(C(=O)Cc2ncc(C(F)(F)F)cc2C(F)(F)F)c2ccc(F)cc2)nn1", "%", 57.8],
  ["O=C(Nc1ccc(O)c(NS(=O)(=O)c2ccc(F)cc2)c1)c1ccc(-c2ccccc2)cc1 + Nc1ccc(C#CCN(C(=O)Cc2ncc(C(F)(F)F)cc2C(F)(F)F)c2ccc(F)cc2)nn1", "%", 108],
  ["C=CC(=O)N1CCN(c2nc(=O)n(-c3c(C)ccnc3C(C)C)c3nc(-c4c(O)cccc4F)c(F)cc23)C(C)C1 (stereo not given) + Nc1ccc(C#CCN(C(=O)Cc2ncc(C(F)(F)F)cc2C(F)(F)F)c2ccc(F)cc2)nn1", "%", 97.5],
  ["CC(C)n1c(=O)n(C)c2cnc3cc(F)c(-c4ccc(OCCCN5CCCCC5)nc4)cc3c21 + COC1C(OC(N)=O)C(O)C(Oc2ccc3c(O)c(NC(=O)c4ccc(O)c(CC=C(C)C)c4)c(=O)oc3c2C)OC1(C)C", "%", 88.8],
  ["C#Cc1c(F)ccc2cc(O)cc(-c3ncc4c(N5CC6CCC(C5)N6)nc(OCC56CCCN5CC(F)C6)nc4c3F)c12 (stereo not given) + COC1C(OC(N)=O)C(O)C(Oc2ccc3c(O)c(NC(=O)c4ccc(O)c(CC=C(C)C)c4)c(=O)oc3c2C)OC1(C)C", "%", 49.4],
  ["CC1COCCN1c1cc(C2(O)CC3CCC(C2)O3)c2cnn(-c3ccn[nH]3)c2n1 (stereo not given) + Cc1cccc(N(C)C(=O)C2C(O)CCN2c2nc(C)cc(C(F)(F)F)c2C#N)c1", "%", 36],
  ["CC(C)n1c(=O)n(C)c2cnc3cc(F)c(-c4ccc(OCCCN5CCCCC5)nc4)cc3c21 + Cc1cccc(N(C)C(=O)C2C(O)CCN2c2nc(C)cc(C(F)(F)F)c2C#N)c1", "%", 88.9],
  ["CC1COCCN1c1cc(-c2ccnn2C)c2ccnc(-c3ccn[nH]3)c2n1 (stereo not given) + Nc1ccc(C#CCN(C(=O)Cc2ncc(C(F)(F)F)cc2C(F)(F)F)c2ccc(F)cc2)nn1", "%", 46.6],
  ["CCc1cc2c(N3CCc4c(cc(Cn5ccnc5)cc4-c4cn(C)nc4C(F)(F)F)C3=O)ccnc2c(OC)n1 + Cc1cccc(N(C)C(=O)C2C(O)CCN2c2nc(C)cc(C(F)(F)F)c2C#N)c1", "%", 72.7],
  ["COc1cc2cc(C(=O)CCC(=O)O)sc2cc1OC + Nc1ccc(C#CCN(C(=O)Cc2ncc(C(F)(F)F)cc2C(F)(F)F)c2ccc(F)cc2)nn1", "%", 114],
  ["COc1cc2cc(C(=O)CCC(=O)O)sc2cc1OC + Cc1cccc(N(C)C(=O)C2C(O)CCN2c2nc(C)cc(C(F)(F)F)c2C#N)c1", "%", 87.7],
  ["O=C(c1cc(Cc2n[nH]c(=O)c3ccccc23)ccc1F)N1CCN(C(=O)C2CC2)CC1 + Nc1ccc(C#CCN(C(=O)Cc2ncc(C(F)(F)F)cc2C(F)(F)F)c2ccc(F)cc2)nn1", "%", 95.6],
  ["COc1ccc([C@@H](O)c2cc(-c3ncnc4cc(N5CCOCC5)ccc34)c(F)cc2Cl)nn1 + COC1C(OC(N)=O)C(O)C(Oc2ccc3c(O)c(NC(=O)c4ccc(O)c(CC=C(C)C)c4)c(=O)oc3c2C)OC1(C)C", "%", 55.5],
  ["CCc1cc2c(N3CCc4c(cc(Cn5ccnc5)cc4-c4cn(C)nc4C(F)(F)F)C3=O)ccnc2c(OC)n1 + COC1C(OC(N)=O)C(O)C(Oc2ccc3c(O)c(NC(=O)c4ccc(O)c(CC=C(C)C)c4)c(=O)oc3c2C)OC1(C)C", "%", 79.5],
  ["COc1cccc2c1C(=O)c1c(O)c3c(c(O)c1C2=O)CC(O)(C(=O)CO)CC3OC1CC(N)C(O)C(C)O1 (stereo not given) + COC1C(OC(N)=O)C(O)C(Oc2ccc3c(O)c(NC(=O)c4ccc(O)c(CC=C(C)C)c4)c(=O)oc3c2C)OC1(C)C", "%", 6.39],
  ["CNCc1ccc(-c2[nH]c3cc(F)cc4c3c2CCNC4=O)cc1 + COC1C(OC(N)=O)C(O)C(Oc2ccc3c(O)c(NC(=O)c4ccc(O)c(CC=C(C)C)c4)c(=O)oc3c2C)OC1(C)C", "%", 88.2]
]}
